ASSAYED TARGET: human mGluR2 receptor (Homo sapiens)
Construct: expressed in transfected cells; host or cells: CHO cells
Sequence (Q14416 19-872): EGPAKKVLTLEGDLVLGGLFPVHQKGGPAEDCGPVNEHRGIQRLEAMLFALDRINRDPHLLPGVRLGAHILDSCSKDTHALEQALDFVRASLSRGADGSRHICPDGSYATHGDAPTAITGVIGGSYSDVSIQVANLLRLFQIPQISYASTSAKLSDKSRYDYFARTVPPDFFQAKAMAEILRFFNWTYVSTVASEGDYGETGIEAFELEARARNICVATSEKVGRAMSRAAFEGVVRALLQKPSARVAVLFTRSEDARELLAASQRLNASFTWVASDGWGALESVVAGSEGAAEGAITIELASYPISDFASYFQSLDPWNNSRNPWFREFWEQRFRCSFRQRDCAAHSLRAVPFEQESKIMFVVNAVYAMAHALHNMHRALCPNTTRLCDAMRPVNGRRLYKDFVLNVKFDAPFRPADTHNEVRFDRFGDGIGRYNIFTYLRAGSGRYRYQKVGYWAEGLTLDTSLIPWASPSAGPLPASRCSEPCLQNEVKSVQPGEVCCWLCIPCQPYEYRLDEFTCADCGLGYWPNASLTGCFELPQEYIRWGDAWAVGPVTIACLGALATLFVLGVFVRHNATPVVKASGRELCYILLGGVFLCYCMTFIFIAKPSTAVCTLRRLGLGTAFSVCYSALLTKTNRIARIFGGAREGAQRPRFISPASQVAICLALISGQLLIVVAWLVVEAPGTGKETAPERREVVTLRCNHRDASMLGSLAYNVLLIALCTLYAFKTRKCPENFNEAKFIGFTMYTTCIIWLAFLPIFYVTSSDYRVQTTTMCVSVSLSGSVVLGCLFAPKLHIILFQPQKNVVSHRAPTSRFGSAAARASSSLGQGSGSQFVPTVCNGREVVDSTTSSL
PROTOCOL SUMMARY: [35S]GTPγS binding assay (GTPγS-PAM), membranes from cells transfected with the human mGluR2 receptor
Format: biochemical
CONDITION DETAILS: in presence of mGluR2 agonist glutamate at a predetermined EC25 concentration; CHO-cell membranes; averages of duplicate values of 11-concentration response curves; pEC50 = -logEC50; read-out: GTPgS - hR2 PAM pEC50 (converted)
MEASUREMENT TYPE: EC50 (nM)

P. O=c1c(Cl)c(-c2ccc(OC3CCOCC3)c(Cl)c2)ccn1CCC1CC1 [Compound 4]
Q. O=c1c(Cl)c(-c2ccc(NC3CCOCC3)c(Cl)c2)ccn1CC1CC1 [Compound 6]
Query string: Compare reported EC50 values for P and Q . Which is lower? Your answer should be the label attached to the chosen record.
Result string: P
(P: 275 nM, Q: 575 nM)

a. CCCCn1ccc(-c2ccc(NC3CCC(C)(O)CC3)c(Cl)c2)c(Cl)c1=O (stereo not shown) [Compound 7]
b. O=c1c(Cl)c(-c2ccc(NC3CCOCC3)c(C(F)(F)F)c2)ccn1CC1CC1 [Compound 5]
Query string: Larger number for EC50: a , or b ? Your answer should be the label attached to the chosen record.
Result string: b

---

MEASUREMENT TYPE: melting point (°C)

Query string: // query melting point value for entry O=c1c(Cl)c(-c2ccc(NC3CCOCC3)c(Cl)c2)ccn1CC1CC1 [Compound 6]
Result string: 231

Query string: // query melting point value for entry O=c1c(Cl)c(-c2ccc(OC3CCOCC3)c(Cl)c2)ccn1CCC1CC1 [Compound 4]
Result string: 154

Query string: // query melting point value for entry CCCCn1ccc(-c2ccc(NC3CCC(C)(O)CC3)c(Cl)c2)c(Cl)c1=O (stereo not shown) [Compound 7]
Result string: 227.4

Query string: // query melting point value for entry O=c1c(Cl)c(-c2ccc(NC3CCOCC3)c(C(F)(F)F)c2)ccn1CC1CC1 [Compound 5]
Result string: 173
